protocol-details: Plasma pharmacokinetics after single subcutaneous administration (LC-MS)
Type: in vivo, Sprague-Dawley rats
run-conditions: male, Sprague-Dawley, sc; Dose 16.6 mg/kg s.c., rat plasma
Where a SMILES comes first, the peptide text is derived from it. [ ]: non-standard residue; d: D form. αMeF = C[C@](N)(Cc1ccccc1)C(=O)O; Aib = CC(C)(N)C(=O)O
property-name: AUC(0-t) (ng·h/mL)
One number for each entry, in ng·h/mL.

Enquiry: Answer with the recorded AUC(0-t) for the compound listed here: CC(=O)N[C@@H](CCCNC(=N)N)C(=O)NC(C)(C)C(=O)N[C@@H](CCCNC(=N)N)C(=O)N[C@@](C)(Cc1ccccc1)C(N)=O [Ac-Arg-Aib-Arg-α(Me)Phe-NH2] (Ac-R[Aib]R[αMeF]-NH2)
Return: 39300
